Test system: NCI-H23
EXPERIMENT NOTES: NCI tumour cell line growth inhibition, 48 h
Active and inactive are the calls of the source. Rule as the data show it: active = GI50 up to about 1.1 µM and inactive = higher.
Thanks in advance; please answer with one of these: active, inactive

Query: What did the test return for `CS(=O)(=O)CS(=O)(=O)OCCCl` ?
Reply: inactive

Query: # fetch the recorded call for CCOC(=O)C(NC(=O)c1ccco1)(Nc1nc2ccc(OCC)cc2s1)C(F)(F)F (stereo not drawn) here
Reply: inactive

Query: Dear colleague, could you share the recorded outcome for `COc1cccc(CCNC(=O)Cc2ccccc2CCO)c1` when you have a moment?
Reply: inactive

Query: Called result for `COc1ccc2[nH]c3c(c2c1)CCc1ccccc1-3`
Reply: inactive
